protocol-details: Toxicokinetic (TK) study in rats, 28-day
Type: in vivo, rat
experimental-context: female, rat, in vivo, 40 mg/kg, Study Day 1, Female
readout-type: Tmax (h)
Entry rule: numbers only, all in h.

Tell me Tmax reported for C=CC(=O)N1CC[C@@H](n2nc(-c3ccc(Oc4c(F)c(F)cc(F)c4F)cc3F)c3c(N)ncnc32)C1 [Compound 45] 1

* * *

measurement-target: BTK wild type (Homo sapiens (Human), UniProt Q06187)
Sequence (Q06187 whole entry): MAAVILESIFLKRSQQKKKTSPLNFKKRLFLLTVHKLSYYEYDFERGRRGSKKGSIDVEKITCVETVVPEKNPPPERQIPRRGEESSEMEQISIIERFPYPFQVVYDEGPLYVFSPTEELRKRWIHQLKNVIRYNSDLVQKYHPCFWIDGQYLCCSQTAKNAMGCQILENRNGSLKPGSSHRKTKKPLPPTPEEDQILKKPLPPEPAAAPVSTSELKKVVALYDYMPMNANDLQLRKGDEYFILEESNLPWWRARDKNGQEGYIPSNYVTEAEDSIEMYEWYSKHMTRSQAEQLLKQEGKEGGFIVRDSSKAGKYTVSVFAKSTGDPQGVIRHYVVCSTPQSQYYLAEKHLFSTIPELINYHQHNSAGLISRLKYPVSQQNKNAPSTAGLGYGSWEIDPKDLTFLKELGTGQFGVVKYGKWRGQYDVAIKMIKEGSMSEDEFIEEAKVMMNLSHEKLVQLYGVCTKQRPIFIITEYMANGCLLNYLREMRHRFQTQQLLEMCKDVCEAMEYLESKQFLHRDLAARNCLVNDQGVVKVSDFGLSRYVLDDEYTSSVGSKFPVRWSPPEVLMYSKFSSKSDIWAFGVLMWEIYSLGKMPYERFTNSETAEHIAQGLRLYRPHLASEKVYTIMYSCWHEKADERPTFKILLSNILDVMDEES
protocol-details: Inhibition assay of BTK kinase activity (HTRF)
Type: biochemical
experimental-context: read-out: BTK IC50
IC50 reference
Entry rule: numbers only, all in nM.

Guide cases for IC50, answers given:
>>> quantitative_result("C=CC(=O)N1CCC[C@H](n2nc(-c3ccc(Oc4c(F)c(F)cc(F)c4F)cc3F)c3c(N)ncnc32)C1")
23
>>> quantitative_result("Nc1ncnc2c1c(-c1ccc(Oc3c(F)c(F)cc(F)c3F)cc1F)nn2C1CCCN(C(=O)C2CNC(=O)S2)C1 (stereo not shown)")
454

Tell me IC50 reported for `C=CC(=O)N[C@@H]1CC[C@@H](n2nc(-c3ccc(Oc4cccc(F)c4)cc3F)c3c(N)ncnc32)C1` 3

Tell me IC50 reported for C=C(C(=O)N1CCCC(n2nc(-c3ccc(Oc4c(F)c(F)cc(F)c4F)cc3F)c3c(N)ncnc32)C1)C(F)(F)F (stereo not shown) 6

* * *

protocol-details: Toxicokinetic (TK) study in dogs, 28-day
Type: in vivo, dog
experimental-context: female, dog, in vivo, 45 mg/kg/day, Study Day 1, Female
readout-type: Cmax (ng/mL)
Entry rule: numbers only, all in ng/mL.

Tell me Cmax reported for `C=CC(=O)N1CC[C@@H](n2nc(-c3ccc(Oc4c(F)c(F)cc(F)c4F)cc3F)c3c(N)ncnc32)C1` 1220

* * *

protocol-details: Toxicokinetic (TK) study in dogs, 28-day
Assay type: in vivo, dog
experimental-context: male, dog, in vivo, 15 mg/kg/day, Study Day 1, Male
readout-type: Tmax

Tell me Tmax reported for `C=CC(=O)N1CC[C@@H](n2nc(-c3ccc(Oc4c(F)c(F)cc(F)c4F)cc3F)c3c(N)ncnc32)C1` 2 h

* * *

protocol-details: Pharmacokinetic study in Beagle dogs
Type: in vivo
experimental-context: dog, plasma, IV, 2 mg/kg, mean
readout-type: half-life (h)
Entry rule: numbers only, all in h.

Tell me half-life reported for `C=CC(=O)N1CC[C@@H](n2nc(-c3ccc(Oc4c(F)c(F)cc(F)c4F)cc3F)c3c(N)ncnc32)C1` 2.27

* * *

protocol-details: Toxicokinetic (TK) study in rats, 28-day
Format: in vivo, rat
experimental-context: female, rat, in vivo, 200 mg/kg, Study Day 1, Female
readout-type: Cmax (ng/mL)
Entry rule: numbers only, all in ng/mL.

Tell me Cmax reported for `C=CC(=O)N1CC[C@@H](n2nc(-c3ccc(Oc4c(F)c(F)cc(F)c4F)cc3F)c3c(N)ncnc32)C1` 4680

* * *

protocol-details: Toxicokinetic (TK) study in dogs, 28-day
Format: in vivo, dog
experimental-context: female, dog, in vivo, 105 mg/kg/day, Study Day 28, Female
readout-type: Cmax (µg/mL)
Entry rule: numbers only, all in µg/mL.

Tell me Cmax reported for `C=CC(=O)N1CC[C@@H](n2nc(-c3ccc(Oc4c(F)c(F)cc(F)c4F)cc3F)c3c(N)ncnc32)C1` 2.42

* * *

protocol-details: Toxicokinetic (TK) study in dogs, 28-day
Format: in vivo, dog
experimental-context: male, dog, in vivo, 15 mg/kg/day, Study Day 1, Male
readout-type: Cmax

Tell me Cmax reported for C=CC(=O)N1CC[C@@H](n2nc(-c3ccc(Oc4c(F)c(F)cc(F)c4F)cc3F)c3c(N)ncnc32)C1 [Compound 45] 746 ng/mL

* * *

protocol-details: Toxicokinetic (TK) study in rats, 28-day
Type: in vivo, rat
experimental-context: male, rat, in vivo, 100 mg/kg, Study Day 28, Male
readout-type: Tmax (h)
Entry rule: numbers only, all in h.

Tell me Tmax reported for `C=CC(=O)N1CC[C@@H](n2nc(-c3ccc(Oc4c(F)c(F)cc(F)c4F)cc3F)c3c(N)ncnc32)C1` 2

* * *

protocol-details: Toxicokinetic (TK) study in rats, 28-day
Assay type: in vivo, rat
experimental-context: male, rat, in vivo, 100 mg/kg, Study Day 1, Male
readout-type: Tmax

Tell me Tmax reported for C=CC(=O)N1CC[C@@H](n2nc(-c3ccc(Oc4c(F)c(F)cc(F)c4F)cc3F)c3c(N)ncnc32)C1 [Compound 45] 2 h

* * *

protocol-details: Pharmacokinetic study in male SD rats
Type: in vivo
experimental-context: rat, plasma, PO, 10 mg/kg, mean
Procedure: A pharmacokinetic study in male SD rats: Male SD rats for pharmacokinetic study within 24 hours were divided into two groups: intravenous administration and oral administration. Each group has three animals. For group of intravenous administration, blood samples were collected at pre-dose, 0.0833, 0.167, 0.5, 1, 2, 4, 8, 24 h post-dose; for group of oral administration, blood samples were collected at pre-dose, 0.167, 0.5, 1, 2, 4, 8, 24 h post-dose. […]
readout-type: AUC(0-t) (ng·h/mL)
Entry rule: numbers only, all in ng·h/mL.

Tell me AUC(0-t) reported for `C=CC(=O)N1CC[C@@H](n2nc(-c3ccc(Oc4c(F)c(F)cc(F)c4F)cc3F)c3c(N)ncnc32)C1` 3230

* * *

protocol-details: Pharmacokinetic study in male SD rats
Assay type: in vivo
experimental-context: rat, plasma, PO, 10 mg/kg, mean
readout-type: half-life (h)
Entry rule: numbers only, all in h.

Tell me half-life reported for C=CC(=O)N1CC[C@@H](n2nc(-c3ccc(Oc4c(F)c(F)cc(F)c4F)cc3F)c3c(N)ncnc32)C1 [Compound 45] 1.71

* * *

protocol-details: Toxicokinetic (TK) study in rats, 28-day
Format: in vivo, rat
experimental-context: male, rat, in vivo, 100 mg/kg, Study Day 1, Male
readout-type: Cmax (ng/mL)
Entry rule: numbers only, all in ng/mL.

Tell me Cmax reported for C=CC(=O)N1CC[C@@H](n2nc(-c3ccc(Oc4c(F)c(F)cc(F)c4F)cc3F)c3c(N)ncnc32)C1 [Compound 45] 2740

* * *

protocol-details: Toxicokinetic (TK) study in rats, 28-day
Type: in vivo, rat
experimental-context: female, rat, in vivo, 40 mg/kg, Study Day 28, Female
readout-type: Cmax (ng/mL)
Entry rule: numbers only, all in ng/mL.

Tell me Cmax reported for `C=CC(=O)N1CC[C@@H](n2nc(-c3ccc(Oc4c(F)c(F)cc(F)c4F)cc3F)c3c(N)ncnc32)C1` 2970

* * *

protocol-details: Pharmacokinetic study in Beagle dogs
Assay type: in vivo
experimental-context: dog, plasma, PO, 5 mg/kg
readout-type: bioavailability (%)
Entry rule: numbers only, all in %.

Tell me bioavailability reported for `C=CC(=O)N1CC[C@@H](n2nc(-c3ccc(Oc4c(F)c(F)cc(F)c4F)cc3F)c3c(N)ncnc32)C1` 26.2

* * *

protocol-details: Toxicokinetic (TK) study in dogs, 28-day
Type: in vivo, dog
experimental-context: female, dog, in vivo, 105 mg/kg/day, Study Day 28, Female, read-out: AUC0-24 h
readout-type: AUC(0-t)
Write the numeric value and follow it with the unit.

Tell me AUC(0-t) reported for `C=CC(=O)N1CC[C@@H](n2nc(-c3ccc(Oc4c(F)c(F)cc(F)c4F)cc3F)c3c(N)ncnc32)C1` 17300 ng·h/mL

* * *

protocol-details: Toxicokinetic (TK) study in dogs, 28-day
Type: in vivo, dog
experimental-context: female, dog, in vivo, 45 mg/kg/day, Study Day 28, Female, read-out: AUC0-24 h
readout-type: AUC(0-t) (ng·h/mL)
Entry rule: numbers only, all in ng·h/mL.

Tell me AUC(0-t) reported for `C=CC(=O)N1CC[C@@H](n2nc(-c3ccc(Oc4c(F)c(F)cc(F)c4F)cc3F)c3c(N)ncnc32)C1` 8130

* * *

protocol-details: Toxicokinetic (TK) study in rats, 28-day
Format: in vivo, rat
experimental-context: male, rat, in vivo, 200 mg/kg, Study Day 28, Male
readout-type: Tmax (h)
Entry rule: numbers only, all in h.

Tell me Tmax reported for C=CC(=O)N1CC[C@@H](n2nc(-c3ccc(Oc4c(F)c(F)cc(F)c4F)cc3F)c3c(N)ncnc32)C1 [Compound 45] 2

* * *

protocol-details: Toxicokinetic (TK) study in rats, 28-day
Format: in vivo, rat
experimental-context: male, rat, in vivo, 200 mg/kg, Study Day 1, Male, read-out: AUC0-24 h
readout-type: AUC(0-t)

Tell me AUC(0-t) reported for C=CC(=O)N1CC[C@@H](n2nc(-c3ccc(Oc4c(F)c(F)cc(F)c4F)cc3F)c3c(N)ncnc32)C1 [Compound 45] 37600 ng·h/mL

* * *

protocol-details: Toxicokinetic (TK) study in dogs, 28-day
Type: in vivo, dog
experimental-context: female, dog, in vivo, 45 mg/kg/day, Study Day 1, Female
readout-type: Tmax (h)
Entry rule: numbers only, all in h.

Tell me Tmax reported for C=CC(=O)N1CC[C@@H](n2nc(-c3ccc(Oc4c(F)c(F)cc(F)c4F)cc3F)c3c(N)ncnc32)C1 [Compound 45] 2
